The measured values listed here are drawn from patent US20120029177A1.

- System: SNU-C4 xenografted nude mice
- test: Biodistribution study in SNU-C4 xenografted nude mice after intravenous injection
- Format: in vivo, mouse
- condition details: intestine, 10 min after intravenous injection
endpoint: % ID/g Intestine (% ID/g)
The reply should contain only the number, in % ID/g.

[ask] // % ID/g Intestine lookup, key: NC(CNC(=O)CN1CCN(CC(=O)[O-])CCN(CC(=O)[O-])CC1)C(=O)[O-].[68Ga+3] (centres unmarked) [^68Ga-NOTA-ala]
[reply] 1.74

[ask] // % ID/g Intestine lookup, key: O=C([O-])CN1CCNCCN(CC(=O)[O-])CCN(CC(=O)[O-])CC1.[68Ga+3] [^68Ga-DO3A, reference compound]
[reply] 1.87

[ask] // % ID/g Intestine lookup, key: N[C@@H](CN1CCN(CC(=O)[O-])CCN(CC(=O)[O-])CCN(CC(=O)[O-])CC1)C(=O)O.[68Ga+3] (stereo in doubt) [^68Ga-DO3A-ala]
[reply] 2.48

[ask] // % ID/g Intestine lookup, key: O=C([O-])CN1CCN(CC(=O)[O-])CCN(CC(=O)O)CCN(CC(=O)[O-])CC1.[68Ga+3] [^68Ga-DOTA, reference compound]
[reply] 1.62

[ask] // % ID/g Intestine lookup, key: NC(CNC(=O)CN1CCN(CC(=O)[O-])CCN(CC(=O)[O-])CCN(CC(=O)[O-])CC1)C(=O)O.[68Ga+3] (centres unmarked) [^68Ga-DOTA-ala]
[reply] 1.91

[ask] // % ID/g Intestine lookup, key: NC(CN1CCN(CC(=O)[O-])CCNCCN(CC(=O)[O-])CC1)C(=O)[O-].[68Ga+3] (centres unmarked) [^68Ga-DO2A-ala]
[reply] 1.91

[ask] // % ID/g Intestine lookup, key: O=C([O-])CN1CCNCCN(CC(=O)[O-])CCNCC1.[68Ga+3] [^68Ga-DO2A, reference compound]
[reply] 2.24

[ask] // % ID/g Intestine lookup, key: O=C([O-])CN1CCN(CC(=O)[O-])CCN(CC(=O)[O-])CC1.[68Ga+3] [^68Ga-NOTA, reference compound]
[reply] 1.52

* * *

- Test system: SNU-C4 xenografted nude mice
- test: Biodistribution study in SNU-C4 xenografted nude mice after intravenous injection
- Type: in vivo, mouse
- condition details: heart, 2 hr after intravenous injection
endpoint: % ID/g Heart (% ID/g)
The reply should contain only the number, in % ID/g.

[ask] // % ID/g Heart lookup, key: O=C([O-])CN1CCNCCN(CC(=O)[O-])CCNCC1.[68Ga+3] [^68Ga-DO2A, reference compound]
[reply] 0.23

[ask] // % ID/g Heart lookup, key: N[C@@H](CN1CCN(CC(=O)[O-])CCN(CC(=O)[O-])CCN(CC(=O)[O-])CC1)C(=O)O.[68Ga+3] (stereo in doubt) [^68Ga-DO3A-ala]
[reply] 1.30

[ask] // % ID/g Heart lookup, key: O=C([O-])CN1CCN(CC(=O)[O-])CCN(CC(=O)[O-])CC1.[68Ga+3] [^68Ga-NOTA, reference compound]
[reply] 0.07

[ask] // % ID/g Heart lookup, key: O=C([O-])CN1CCN(CC(=O)[O-])CCN(CC(=O)O)CCN(CC(=O)[O-])CC1.[68Ga+3] [^68Ga-DOTA, reference compound]
[reply] 0.08

[ask] // % ID/g Heart lookup, key: NC(CN1CCN(CC(=O)[O-])CCNCCN(CC(=O)[O-])CC1)C(=O)[O-].[68Ga+3] (centres unmarked) [^68Ga-DO2A-ala]
[reply] 0.45

[ask] // % ID/g Heart lookup, key: NC(CNC(=O)CN1CCN(CC(=O)[O-])CCN(CC(=O)[O-])CCN(CC(=O)[O-])CC1)C(=O)O.[68Ga+3] (centres unmarked) [^68Ga-DOTA-ala]
[reply] 0.15

[ask] // % ID/g Heart lookup, key: O=C([O-])CN1CCNCCN(CC(=O)[O-])CCN(CC(=O)[O-])CC1.[68Ga+3] [^68Ga-DO3A, reference compound]
[reply] 0.06

[ask] // % ID/g Heart lookup, key: NC(CNC(=O)CN1CCN(CC(=O)[O-])CCN(CC(=O)[O-])CC1)C(=O)[O-].[68Ga+3] (centres unmarked) [^68Ga-NOTA-ala]
[reply] 0.10
